Tested on: COLO 205 colon
protocol: NCI-60 one-dose screen, 48 h (100 = growth as untreated, 0 = no growth, -100 = all killed)
assay.context: 10 µM unless noted
This is part of a sample that, as a whole, favours compounds with a hit. Of some 83,000 tested, about 20% had one in any assay.
Label rule, in plain words: growth of 40% and up is criterion met, under 40% is criterion not met.

compound | label
CC(=O)c1ccc(Nc2nc(C(C)=O)c(C)s2)cc1 | criterion met
CCc1ccc(Oc2c(-c3ccc(OCc4ccc(Cl)cc4)cc3O)nn(C)c2C(F)(F)F)cc1 | criterion not met
O=C1NC(=O)C(Cn2cnc3ccccc32)N1 (stereo unspecified) | criterion met
COc1cccc(-c2nc(-c3ccc(NS(=O)(=O)c4ccccc4)cc3)[nH]c2-c2ccnc(Br)c2)c1 | criterion not met
Cc1ccc(-c2cnc3sc(C(=O)NCCc4ccccc4)c(C)n23)cc1 | criterion met
COc1ccc2c(c1)nc(NNC(=O)c1cnccn1)c1cccn12 | criterion not met
COc1ccc(C(=O)/C=C/c2sc(Cl)nc2Cl)cc1 | criterion not met
O=c1c2cccc(Cl)c2sc2c(NCCCNCCO)nc3ccccc3c12 | criterion not met
CCOC(=O)c1sc2ncc(-c3ccc(C)cc3)n2c1C | criterion met
Cc1ccc(-c2nc(SCC(=O)Nc3nc(-c4ccc(Cl)cc4)cs3)[nH]c(=O)c2C#N)cc1 | criterion met
Cc1cc2nc3cc(C)c(N)cc3[n+](-c3ccccc3)c2cc1N | criterion met

* * *

Tested on: IGROV1 ovarian
protocol: NCI-60 one-dose screen, 48 h (100 = growth as untreated, 0 = no growth, -100 = all killed)
assay.context: 10 µM unless noted
About 83,000 compounds went through this panel and 20% of them were active in at least one assay; those are over-represented in the sample as a whole.
Collected growth values appear next to each entry.

compound | growth (%)
CCOC(=O)c1sc2ncc(-c3ccc(C)cc3)n2c1C | 71.3
COc1ccc(-c2cc(-c3ccc(Cl)cc3)c(C#N)c(=O)n2CCCCCC(=O)Nc2ccccc2N)cc1 | 37.6
Cc1nn(-c2ccccc2)c(-n2ccnc2)c1/C=N/Nc1nc(-c2ccc(Cl)c(Cl)c2)cs1 | 60.9
O=c1c2cc(F)ccc2sc2c(N3CCNCC3)nc3ccccc3c12 | 48
Cc1ccc(-c2nc(N3CCN(CC(=O)Nc4ccc(Cl)cc4)CC3)c3ccccc3n2)cc1 | 96.3
CS(=O)(=O)N(c1cc(-c2ccc3ncnc(Nc4ccc(F)c(Cl)c4)c3c2)cnc1Cl)S(C)(=O)=O | -22.3
CCOC(=O)c1[nH]c(C)c(C(=O)OCc2ccccc2C#N)c1C | 44.6
COc1cc(C2CC(c3ccc(N(C)C)cc3)=NN2C(C)=O)cc(OC)c1OC (stereo unspecified) | 30.4
O=c1c2cc(F)ccc2sc2c(NCCN3CCOCC3)nc3ccccc3c12 | 74.6
O=c1[nH][n+](-c2ccc(Br)cc2)no1 | 62.1
COc1ccc2c(c1)c(-c1nn3cc(-c4cccs4)nc3s1)cn2C | 52.9
CCC(=O)Nc1ccc(-c2nc(-c3cccc(OC)c3)c(-c3ccnc(Br)c3)[nH]2)cc1 | 81
CCN(CC)Cc1cc(Nc2c3ccc(Cl)cc3nc3ccc(OC)cc23)ccc1O | 29.6
O=C(CCOCCNC(=O)COc1ccc2c(c1)OCC(c1ccc(F)cc1)C2=O)NCCCC(O)(P(=O)(O)O)P(=O)(O)O (stereo unspecified) | 118
COc1ccc(OC)c(/C=C/c2nnc(Nc3ccccc3)o2)c1 | 109
Cc1ccc2c(-c3cc(-c4ccccc4)nc(N)c3C#N)cc(=O)oc2c1 | 110
CCOC(=O)C1=C(N)Oc2c(sc3c(C)cccc23)C1c1ccc(Cl)cc1 (stereo unspecified) | 22.6
O=C1/C(=C/c2ccccc2[N+](=O)[O-])Oc2ccc(O)c(O)c21 | 48.5
O=c1c2cc(F)ccc2sc2c(NCCCNCCO)nc3ccccc3c12 | 22.4
CC1Cc2ccccc2N1NC(=O)c1ccc(Cl)c(S(N)(=O)=O)c1 (stereo unspecified) | 98.6
O=C(Nc1ccc(I)cc1F)c1cc(I)ccc1O | 18.4
